# condition set: in n-pentyl acetate, 293.15 K
readout: solubility (mole fraction)
Numbers only.

Inquiry: Entry `Nc1nc2ccc(OC(F)(F)F)cc2s1` : reported solubility (mole fraction) = ?
Reply text: 0.374

----------
# condition set: in acetonitrile, 318.15 K
readout: solubility (mole fraction)
Numbers only.

Inquiry: Entry `Nc1nc2ccc(OC(F)(F)F)cc2s1` : reported solubility (mole fraction) = ?
Reply text: 0.365

----------
# condition set: in n-pentyl acetate, 313.15 K
readout: solubility (mole fraction)
One number for each entry.

Inquiry: Entry `Nc1nc2ccc(OC(F)(F)F)cc2s1` : reported solubility (mole fraction) = ?
Reply text: 0.425

----------
# condition set: in n-pentyl acetate, 303.15 K
readout: solubility (mole fraction)
Give bare numbers.

Inquiry: Entry `Nc1nc2ccc(OC(F)(F)F)cc2s1` : reported solubility (mole fraction) = ?
Reply text: 0.395
